Hello, the source for this data is the supplement of paper PMC6555819, in case you need it.

Test system: THRa:RXRa (NR concentration 90 nM, RXRa partner concentration 90 nM)
Assay: PBM binding z-score (relative to random genomic background probes); higher = stronger binding; sequences stand for … in GC…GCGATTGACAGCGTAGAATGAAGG
PROPERTY_MEASURED: PBM binding z-score
Lab note: write the figure by itself, no unit.

Please review the entries below; each comes with its answer.
SEQUENCE_CODE: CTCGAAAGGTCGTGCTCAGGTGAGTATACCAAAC
RESULT: 4.17
//
SEQUENCE_CODE: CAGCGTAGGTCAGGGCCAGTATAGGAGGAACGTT
RESULT: 1.24
//
SEQUENCE_CODE: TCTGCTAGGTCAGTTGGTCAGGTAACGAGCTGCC
RESULT: 1.95
//
SEQUENCE_CODE: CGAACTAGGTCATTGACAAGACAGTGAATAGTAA
RESULT: 2.3
//
SEQUENCE_CODE: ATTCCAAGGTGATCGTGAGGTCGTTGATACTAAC
RESULT: 3.55
//
SEQUENCE_CODE: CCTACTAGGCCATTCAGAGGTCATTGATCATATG
RESULT: 3.42

Lookup: Please report the recorded PBM binding z-score for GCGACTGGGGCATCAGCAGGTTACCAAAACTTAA .
Found: 1.19

* * *

Reported PBM binding z-score values for the following sequences.
System: RXRa homodimer (NR concentration 180 nM)
Assay: PBM binding z-score (relative to random genomic background probes); higher = stronger binding; sequences stand for … in GC…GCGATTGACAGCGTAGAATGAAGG

Please review the entries below; each comes with its answer.
SEQUENCE_CODE: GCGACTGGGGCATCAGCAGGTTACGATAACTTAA
MEASURED_ON: RXRa homodimer (NR concentration 180 nM)
PBM binding z-score: 0.313
//
SEQUENCE_CODE: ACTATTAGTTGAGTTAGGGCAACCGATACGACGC
MEASURED_ON: RXRa homodimer (NR concentration 180 nM)
PBM binding z-score: 0.292
//
SEQUENCE_CODE: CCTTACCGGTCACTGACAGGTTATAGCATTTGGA
MEASURED_ON: RXRa homodimer (NR concentration 180 nM)
PBM binding z-score: 1.2
//
SEQUENCE_CODE: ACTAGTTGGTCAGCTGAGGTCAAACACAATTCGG
MEASURED_ON: RXRa homodimer (NR concentration 180 nM)
PBM binding z-score: 4.56
//
SEQUENCE_CODE: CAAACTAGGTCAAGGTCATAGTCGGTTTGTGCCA
MEASURED_ON: RXRa homodimer (NR concentration 180 nM)
PBM binding z-score: 5.54

Lookup: Please report the recorded PBM binding z-score for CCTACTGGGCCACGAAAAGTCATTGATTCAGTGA .
Found: -0.0607

Lookup: Please report the recorded PBM binding z-score for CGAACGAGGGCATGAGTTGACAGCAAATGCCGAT .
Found: 0.957

Lookup: Please report the recorded PBM binding z-score for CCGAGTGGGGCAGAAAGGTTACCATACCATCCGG .
Found: 1.76

* * *

Reported PBM binding z-score values for the following sequences.
System: RARb:RXRa (NR concentration 270 nM, RXRa partner concentration 90 nM)
Assay: PBM binding z-score (relative to random genomic background probes); higher = stronger binding; sequences stand for … in GC…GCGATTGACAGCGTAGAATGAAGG
Lab note: write the figure by itself, no unit.

SEQUENCE_CODE: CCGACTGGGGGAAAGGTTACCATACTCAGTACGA
PROPERTY_MEASURED: PBM binding z-score
RESULT: 2.04

SEQUENCE_CODE: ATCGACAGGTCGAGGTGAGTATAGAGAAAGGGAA
PROPERTY_MEASURED: PBM binding z-score
RESULT: 1.69

SEQUENCE_CODE: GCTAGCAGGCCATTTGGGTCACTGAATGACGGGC
PROPERTY_MEASURED: PBM binding z-score
RESULT: 1.49

SEQUENCE_CODE: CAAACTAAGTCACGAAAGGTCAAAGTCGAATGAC
PROPERTY_MEASURED: PBM binding z-score
RESULT: 4.83

SEQUENCE_CODE: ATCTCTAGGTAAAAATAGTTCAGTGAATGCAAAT
PROPERTY_MEASURED: PBM binding z-score
RESULT: 0.993

SEQUENCE_CODE: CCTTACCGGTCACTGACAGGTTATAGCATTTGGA
PROPERTY_MEASURED: PBM binding z-score
RESULT: 3.06

SEQUENCE_CODE: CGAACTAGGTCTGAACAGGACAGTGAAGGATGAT
PROPERTY_MEASURED: PBM binding z-score
RESULT: -0.192

SEQUENCE_CODE: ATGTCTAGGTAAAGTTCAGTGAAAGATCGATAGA
PROPERTY_MEASURED: PBM binding z-score
RESULT: 2.84

SEQUENCE_CODE: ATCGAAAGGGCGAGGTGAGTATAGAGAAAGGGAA
PROPERTY_MEASURED: PBM binding z-score
RESULT: 2.09

SEQUENCE_CODE: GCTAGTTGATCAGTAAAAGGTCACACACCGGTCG
PROPERTY_MEASURED: PBM binding z-score
RESULT: 3.89

Lookup: Please report the recorded PBM binding z-score for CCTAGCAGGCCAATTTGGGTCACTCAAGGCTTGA .
Found: 1.29

Lookup: Please report the recorded PBM binding z-score for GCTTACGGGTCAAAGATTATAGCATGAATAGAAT .
Found: 3.39
